test-description: Brain penetration after oral gavage, HPLC/MS of brain extracts
Format: in vivo, C57BL/6 mice
setup-conditions: C57BL/6, mouse, brain, oral, 50 mg/kg, 50 mg/kg oral gavage, free compound, 24 h, mouse; read-out: Compounds in brain extract
observation-type: concentration at 24 h (nM)
The answer is to be given in nM; state only the numeric part.

O=C(CC(CO)N1CCN(c2ccc(OC(F)(F)F)cc2)CC1)Nc1ccc(Cl)cc1 (racemic) [Formula 1] = 120

Okay, now this compound:
Prompt line: Need concentration at 24 h of O=C1CC(N2CCC(Nc3ccc(OC(F)(F)F)cc3)CC2)C(=O)N1c1ccc(Cl)cc1 (centres unmarked) [Formula 10] , thanks.
Response line: 1240
